# test system: human activated kallikrein enzyme (Homo sapiens, UniProt P03952)
# protocol: Plasma kallikrein inhibition, fluorogenic PFR-AMC substrate, 500 pM activated kallikrein format
# Type: biochemical
# assay conditions: 500 pM activated kallikrein, 300 uM PFR-AMC, 30 min preincubation, 10 min reaction; read-out: Primary Dose Response Assay: Average EC50
Item-by-item account of EC50

{"columns": ["molecule", "EC50"],
 "data": [
  ["CCOC(=O)c1nc(NCc2cn3cc(C4CC4)ccc3n2)cc(NC(=O)[C@H]2C[C@@H]2c2cccc(Cl)c2)n1 (racemic) [Example 111]", "1 to 10 nM"],
  ["Cc1ccnc([C@H]2C[C@@H]2C(=O)Nc2cc(N[C@H](C)c3cn4cc(C5CC5)cc(N5CC6(COC6)CC5=O)c4n3)nc(C)n2)n1 [Example I-27]", "< 1 nM"],
  ["Cc1ccnc([C@H]2C[C@@H]2C(=O)Nc2cc(F)c(Cl)c(NCc3cn4cc(C5CC5)cc(N5CC(=O)N(C)C5=O)c4n3)c2)n1 [Example 658]", "< 1 nM"],
  ["N#Cc1cc(C2CC2)cn2cc(COc3ccnc(NC(=O)[C@H]4C[C@@H]4c4cccc(Cl)c4)c3)nc12 (racemic) [Example 567]", "10 to 100 nM"],
  ["Cc1cc(NC(=O)[C@H]2C[C@@H]2c2nccc(C)n2)cc(NCc2cn3cc(C4CC4)cc(N4CC(=O)N(C)C4=O)c3n2)n1 [Example I-639]", "< 1 nM"],
  ["O=C(Nc1cc(NCc2cn3cc(C4CC4)cc(N4CCCC4=O)c3n2)ccn1)[C@H]1C[C@@H]1c1cccc(Cl)c1 [Example 85]", "< 1 nM"],
  ["O=C(Nc1cc(NCc2cn3cc(C4CC4)cc(N4CC5CC5C4=O)c3n2)ncn1)[C@H]1C[C@@H]1c1cc(Cl)ccn1 (stereo partly shown) [Example 327]", "< 1 nM"],
  ["C[C@H]1[C@H](C(=O)Nc2cc(NCc3cn4cc(C5CC5)ccc4n3)ncn2)[C@H]1c1cccc(Cl)c1 (single isomer, unassigned) [Example 505]", "10 to 100 nM"],
  ["Cc1ccnc([C@H]2C[C@@H]2C(=O)Nc2cc(N[C@H](C)c3cn4cc(Cl)cc(N5CC(=O)N(C)C5=O)c4n3)ncn2)n1 [Example 421]", "< 1 nM"],
  ["Nc1ccc([C@H]2C[C@@H]2C(=O)Nc2cc(NCc3cn4cc(C5CC5)ccc4n3)ncn2)cc1Cl (racemic) [Example 278]", "100 to 1000 nM"],
  ["Cc1ccnc([C@H]2C[C@@H]2C(=O)Nc2cc(NCc3cn4cc(C5CC5)cc(N5CC(=O)N(C)C5=O)c4n3)c(F)cc2F)n1 [Example 659]", "1 to 10 nM"],
  ["O=C(Nc1cc(NCc2cn3cc(C4CC4)cc(N4CC5CC5C4=O)c3n2)ccn1)[C@H]1C[C@@H]1c1cccc(Cl)c1 (stereo partly shown) [Example 95]", "< 1 nM"],
  ["O=C(Nc1cc(NCc2cn3cc(C4CC4)cc(N4CCOC4=O)c3n2)ncn1)[C@H]1C[C@@H]1c1cccc(Cl)c1 [Example I-174]", "< 1 nM"]
]}

----------
# test system: human activated kallikrein enzyme (Homo sapiens)
# protocol: Plasma kallikrein inhibition, fluorogenic PFR-AMC substrate, 500 pM activated kallikrein format
# Format: biochemical
# assay conditions: 500 pM activated kallikrein, 300 uM PFR-AMC, 30 min preincubation, 10 min reaction; read-out: Primary Dose Response Assay: Average EC50
Item-by-item account of EC50
property name: EC50

{"columns": ["compound", "test system", "assay result"],
 "data": [
  ["N#Cc1ccc(Cl)cc1[C@H]1C[C@@H]1C(=O)Nc1cc(N2C[C@@H](O)C[C@@H]2c2cn3cc(C4CC4)ccc3n2)ncn1 (relative stereo) [Example 477]", "human activated kallikrein enzyme (Homo sapiens)", "1 to 10 nM"],
  ["O=C(Nc1cc(NCc2cn3cc(C4CC4)cc(N4CC(F)(F)C4)c3n2)ccn1)[C@H]1C[C@@H]1c1cccc(Cl)c1 [Example 124]", "human activated kallikrein enzyme (Homo sapiens)", "1 to 10 nM"],
  ["O=C(Nc1noc(NCc2cn3cc(C4CC4)ccc3n2)n1)[C@H]1C[C@@H]1c1cccc(Cl)c1 [Example 615]", "human activated kallikrein enzyme (Homo sapiens)", "1000 to 6000 nM"],
  ["Cc1ccnc([C@H]2C[C@@H]2C(=O)Nc2cccc(OCc3cn4cc(C5CC5)cc(N5CC(=O)N(C)C5=O)c4n3)c2)n1 [Example I-643]", "human activated kallikrein enzyme (Homo sapiens)", "< 1 nM"],
  ["Cc1ccnc([C@H]2C[C@@H]2C(=O)Nc2cnnc(OCc3cn4cc(C5CC5)cc(N5CC(=O)N(C)C5=O)c4n3)c2)n1 [Example I-648]", "human activated kallikrein enzyme (Homo sapiens)", "< 1 nM"],
  ["O=C(Nc1cc(NCc2cn3cc(C4CC4)ccc3n2)ccn1)[C@@H]1C[C@H]1c1cccc(Cl)c1 (racemic) [Example 115]", "human activated kallikrein enzyme (Homo sapiens)", "1 to 10 nM"],
  ["Cc1ccnc([C@H]2C[C@@H]2C(=O)Nc2cc(N[C@H](C)c3cn4cc(C5CC5)cc(N5CCN(C)C5=O)c4n3)ncn2)n1 [Example 536]", "human activated kallikrein enzyme (Homo sapiens)", "< 1 nM"],
  ["O=C(Nc1cc(N2CCC[C@@H]2c2cn3cc(C4CC4)ccc3n2)ncn1)[C@H]1C[C@@H]1c1cccc(Cl)c1 [Example I-251]", "human activated kallikrein enzyme (Homo sapiens)", "10 to 100 nM"],
  ["COc1ccnc([C@H]2C[C@@H]2C(=O)Nc2cc(NCc3cn4cc(C5CC5)ccc4n3)ccn2)c1 (racemic) [Example I-214]", "human activated kallikrein enzyme (Homo sapiens)", "1 to 10 nM"],
  ["Nc1cc(C2CC2)cn2cc(CNc3cc(NC(=O)[C@H]4C[C@@H]4c4cccc(Cl)c4)ncn3)nc12 [Example 308]", "human activated kallikrein enzyme (Homo sapiens)", "1 to 10 nM"],
  ["CN(C)C1CCN(c2cc(C3CC3)cn3cc(CNc4cc(NC(=O)[C@H]5C[C@@H]5c5cccc(Cl)c5)ncn4)nc23)C1=O (stereo partly shown) [Example I-17]", "human activated kallikrein enzyme (Homo sapiens)", "< 1 nM"],
  ["O=C(Nc1cc(NCc2cn3cc(Cl)ccc3n2)ncn1)[C@H]1C[C@@H]1c1cccc(Cl)c1 [Example I-203]", "human activated kallikrein enzyme (Homo sapiens)", "10 to 100 nM"],
  ["COc1cnc(NC(=O)[C@H]2C[C@@H]2c2nccc(C)n2)nc1NCc1cn2cc(C3CC3)cc(N3CC(=O)N(C)C3=O)c2n1 (racemic) [Example I-244]", "human activated kallikrein enzyme (Homo sapiens)", "< 1 nM"]
]}

----------
# test system: plasma kallikrein (Homo sapiens, UniProt P03952)
# Construct: from tissue
# Sequence (P03952 391-638 limits assumed): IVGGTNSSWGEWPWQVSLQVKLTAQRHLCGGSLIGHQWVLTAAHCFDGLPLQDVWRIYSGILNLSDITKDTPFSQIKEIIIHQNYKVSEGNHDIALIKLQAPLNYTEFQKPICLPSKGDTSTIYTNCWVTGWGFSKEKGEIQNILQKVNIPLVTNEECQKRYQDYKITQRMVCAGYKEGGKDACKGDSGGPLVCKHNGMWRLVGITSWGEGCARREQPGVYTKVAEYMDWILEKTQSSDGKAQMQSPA
# Sequence (P03952 20-390 partner limits assumed): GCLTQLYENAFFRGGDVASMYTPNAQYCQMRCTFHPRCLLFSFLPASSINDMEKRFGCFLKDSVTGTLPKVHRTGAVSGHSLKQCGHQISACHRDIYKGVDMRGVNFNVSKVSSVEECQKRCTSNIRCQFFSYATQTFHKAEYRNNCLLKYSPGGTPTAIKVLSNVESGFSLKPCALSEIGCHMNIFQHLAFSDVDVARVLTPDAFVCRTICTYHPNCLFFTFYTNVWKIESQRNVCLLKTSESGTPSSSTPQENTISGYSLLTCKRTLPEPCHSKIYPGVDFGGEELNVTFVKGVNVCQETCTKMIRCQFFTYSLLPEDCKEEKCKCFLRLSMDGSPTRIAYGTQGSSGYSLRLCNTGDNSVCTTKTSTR
# protocol: Neat human plasma assay, FXIIa contact pathway-activated, PFR-AMC substrate
# Format: biochemical
# assay conditions: citrated human plasma 78% final, 10 nM human FXIIa, 100 μM PFR-AMC; read-out: Human Plasma Assay: IC90
Item-by-item account of IC90
property name: IC90

{"columns": ["compound", "property name", "assay result"],
 "data": [
  ["CN1CCN(c2cc(C3CC3)cn3cc(CNc4cc(NC(=O)[C@H]5C[C@@H]5c5cccc(Cl)c5)ncn4)nc23)CC1CO (stereo partly shown)", "IC90", "400 to 1500 nM"],
  ["CN1C(=O)CN(c2cc(C3CC3)cn3cc(COc4cnnc(NC(=O)[C@H]5C[C@@H]5c5cccc(Cl)c5)c4)nc23)C1=O", "IC90", "400 to 1500 nM"],
  ["O=C(O)CCc1cc(C2CC2)cn2cc(CNc3ccnc(NC(=O)[C@H]4C[C@@H]4c4cccc(Cl)c4)c3)nc12", "IC90", "1500 to 10000 nM"],
  ["COCC1CN(c2cc(C3CC3)cn3cc(CNc4cc(NC(=O)[C@H]5C[C@@H]5c5cccc(Cl)c5)ncn4)nc23)CCN1C (stereo partly shown)", "IC90", "1500 to 10000 nM"],
  ["O=C(Nc1cc(NCc2cn3cc(C4CC4)ccc3n2)cc(CCN2CCOCC2)n1)[C@H]1C[C@@H]1c1cccc(Cl)c1", "IC90", "1500 to 10000 nM"],
  ["Cc1ccnc([C@H]2C[C@@H]2C(=O)Nc2cc(NCc3cn4cc(C5CC5)cc(N5CC(=O)N(CCO)C5=O)c4n3)ncn2)n1", "IC90", "< 400 nM"],
  ["O=C(Nc1cc(NCc2cn3cc(C4CC4)cc(N4CCOC4=O)c3n2)ccn1)[C@H]1C[C@@H]1c1cccc(Cl)c1", "IC90", "< 400 nM"],
  ["CN1CCN(c2cc(C3CC3)cn3cc(CNc4nccc(NC(=O)[C@H]5C[C@@H]5c5cccc(Cl)c5)n4)nc23)CC1", "IC90", "400 to 1500 nM"],
  ["O=C(Nc1cc(NCc2cn3cc(C4CC4)ccc3n2)ncn1)[C@H]1C[C@@H]1c1cccc(Cl)c1 (single isomer, unassigned)", "IC90", "> 48000 nM"],
  ["Cc1ccnc([C@H]2C[C@@H]2C(=O)Nc2cc(N[C@H](C)c3cn4cc(C5CC5)cc(N5CC6(COC6)OC5=O)c4n3)nc(C)n2)n1", "IC90", "< 400 nM"],
  ["COc1ccc(C#N)c([C@H]2C[C@@H]2C(=O)Nc2cc(OCc3cn4cc(C5CC5)cc(N5CC(=O)N(C)C5=O)c4n3)cnn2)c1 (racemic)", "IC90", "400 to 1500 nM"],
  ["CCN1CCN(c2cc(C3CC3)cn3cc(CNc4cc(NC(=O)[C@H]5C[C@@H]5c5nccc(C)n5)ncn4)nc23)CC1", "IC90", "< 400 nM"],
  ["Cc1ccnc([C@H]2C[C@@H]2C(=O)Nc2cc(OCc3cn4cc(C5CC5)cc(N5CC(=O)N(C)C5=O)c4n3)c(C)nn2)n1", "IC90", "< 400 nM"],
  ["CN1C(=O)CN(c2cc(C3CC3)cn3cc(CNc4cc(NC(=O)[C@@H]5[C@@H](c6cccc(Cl)c6)C5(F)F)ncn4)nc23)C1=O (racemic)", "IC90", "1500 to 10000 nM"],
  ["CN1CC(c2cc(C3CC3)cn3cc(CNc4cc(NC(=O)[C@H]5C[C@@H]5c5cccc(Cl)c5)ncn4)nc23)C1", "IC90", "< 400 nM"],
  ["Cc1ccnc([C@H]2C[C@@H]2C(=O)Nc2cc(NCc3cn4cc(C5CC5)ccc4n3)ccn2)n1 (racemic)", "IC90", "10000 to 48000 nM"],
  ["Cc1ccnc([C@H]2C[C@@H]2C(=O)Nc2cc(NCc3cn4cc(C5CC5)cc(N5CC(=O)N(C)C5=O)c4n3)nc(CF)n2)n1 (racemic)", "IC90", "400 to 1500 nM"],
  ["O=C(Nc1cc(NCc2cn3cc(C4CC4)cc(C4CNC4)c3n2)ccn1)[C@H]1C[C@@H]1c1cccc(Cl)c1", "IC90", "< 400 nM"],
  ["Cc1ccnc([C@H]2C[C@@H]2C(=O)Nc2cc(OCc3cn4cc(C5CC5)cc(S(C)(=O)=O)c4n3)cnn2)n1", "IC90", "< 400 nM"],
  ["CN1C(=O)CN(c2cc(C3CC3)cn3cc(CNc4cc(NC(=O)[C@H]5C[C@@H]5c5cc(Cl)ccn5)ncn4)nc23)C1=O (racemic) [Example I-262]", "IC90", "400 to 1500 nM"],
  ["Cc1ccnc([C@H]2C[C@@H]2C(=O)Nc2cc(N[C@H](C)c3cn4cc(C5CC5)cc(N5CCOC5=O)c4n3)ncn2)n1", "IC90", "< 400 nM"],
  ["N#CCCc1cc(C2CC2)cn2cc(COc3ccnc(NC(=O)[C@H]4C[C@@H]4c4cccc(Cl)c4)c3)nc12 (racemic)", "IC90", "10000 to 48000 nM"],
  ["COc1ccnc([C@H]2C[C@@H]2C(=O)Nc2cc(N[C@H](C)c3cn4cc(C5CC5)cc(N5CC(=O)N(C)C5=O)c4n3)ncn2)n1 (relative stereo)", "IC90", "400 to 1500 nM"],
  ["O=C(Nc1cc(NCc2cn3cc(C4CC4)ccc3n2)cc(O)n1)[C@H]1C[C@@H]1c1cccc(Cl)c1", "IC90", "1500 to 10000 nM"],
  ["O=C(Nc1cc(NCc2cn3cc(C4CC4)ccc3n2)cnn1)[C@H]1C[C@@H]1c1cccc(Cl)c1 (racemic)", "IC90", "10000 to 48000 nM"]
]}
